Experiment: ATG_PPRE_CIS: Attagene CIS-FACTORIAL HepG2 Assay for human Peroxisome Proliferator-activated Response Element (PPRE) (AID 2282958)
Conditions: HepG2 PPRE cis-element reporter, Attagene transcription factor profiling; actives raise or lower the signal
Calls of active or inactive are those of the source. How the source made its calls: active means hit-call score of the fitted dose curve at least 0.9, where 1 is the maximum; inactive means score below 0.9.

# CHEMICAL_STRUCTURE, outcome
measured = [
    ("Cc1c(C2(c3cc(Br)c(O)c(Br)c3C)OS(=O)(=O)c3ccccc32)cc(Br)c(O)c1Br", "inactive"),
    ("C=Cc1ccc(C)cc1", "inactive"),
    ("CCOc1ccccc1O", "inactive"),
]

---

Assay: BSK_SAg_PBMCCytotoxicity: PBMC Cytotoxicity Assessment in the BioMAP Diversity Plus: SAg Assay (AID 2283093);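 further: PBMC viability measured as Alamar Blue reduction fluorescence at 546/580 nm; fitted both ways against DMSO so a hit may be loss or gain of signal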;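 on AC50: PBMC superantigen activated with SEB plus TSST-1 one hour after compound addition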
Settings: primary human HUVEC with PBMC
Active and inactive are the calls of the source. How the source made its calls: active means hit-call score of the fitted dose curve at least 0.9, where 1 is the maximum; inactive means score below 0.9.

# COMPOUND, AC50
data = [
    ("Oc1c(Cl)cc(Cl)c(Cl)c1Cc1c(O)c(Cl)cc(Cl)c1Cl", "12.9 µM (active)"),
    ("CCC(C)c1cc([N+](=O)[O-])cc([N+](=O)[O-])c1OC(=O)OC(C)C (configuration not stated)", "28.3 µM (active)"),
    ("CCCCOC(=O)CCCCCCCC(=O)OCCCC", "inactive"),
    ("C[C@@H]1CCN(C(=O)[C@H](CCCN=C(N)N)NS(=O)(=O)c2cccc3c2NC[C@H](C)C3)[C@@H](C(=O)O)C1", "inactive"),
    ("IC(I)I", "inactive"),
    ("Cc1cc(CCC(=O)OCCOCCOCCOC(=O)CCc2cc(C)c(O)c(C(C)(C)C)c2)cc(C(C)(C)C)c1O", "25.2 µM (active)"),
    ("COc1ccc(CCN2CCC(Nc3nc4ccccc4n3Cc3ccc(F)cc3)CC2)cc1", "6.91 µM (active)"),
]

---

Read-out: Interleukin-8 (IL8), CXCL8 (gene 3576)
Test: BSK_3C_IL8: BioMAP Diversity Plus: 3C Assay for Interleukin-8 (IL8) Biomarker Activity (AID 2283020)
Details: primary human endothelial cells (HUVEC); actives raise or lower the signal
The source made the active and inactive calls. The calls were made as follows: active = hit-call score of the fitted dose curve at least 0.9, where 1 is the maximum; inactive = score below 0.9.

# MOLECULE, AC50
rows = [
    ("CCCCCC(C=O)=Cc1ccccc1", "28.8 µM (active)"),
    ("C=C(C)[C@H]1CC=C(C)C(=O)C1", "inactive"),
    ("C=C(C)C(=O)OCCOCCOCCOC(=O)C(=C)C", "inactive"),
    ("CS(=O)(=O)c1ccc(C2=C(c3ccccc3)C(=O)OC2)cc1", "inactive"),
    ("c1ccc(CCc2ccccc2)cc1", "25.8 µM (active)"),
    ("CC=Cc1ccc(OCC)c(O)c1", "inactive"),
    ("C=CC(C)(O)CCC=C(C)C (stereo not given)", "inactive"),
    ("CC(=O)c1c(C)c([N+](=O)[O-])c(C(C)(C)C)c([N+](=O)[O-])c1C", "inactive"),
    ("CN(C)C(=O)Nc1ccc(Oc2ccc(Cl)cc2)cc1", "inactive"),
    ("C1=CC2C3C=CC(C3)C2C1 (stereo not given)", "inactive"),
    ("C=C(C)C(=O)OCCOCCOCCOCCOC(=O)C(=C)C", "inactive"),
    ("COc1ccc(OC)c(N=Nc2c(O)ccc3ccccc23)c1", "inactive"),
    ("c1ccc2cc(Nc3ccc(Nc4ccc5ccccc5c4)cc3)ccc2c1", "inactive"),
    ("CS(=O)(=O)OCCCCOS(C)(=O)=O", "inactive"),
    ("COc1ccc(CCN2CCC(Nc3nc4ccccc4n3Cc3ccc(F)cc3)CC2)cc1", "2.66 µM (active)"),
]

---

Read-out: CD40, CD40 (gene 958)
Assay: BSK_LPS_CD40: BioMAP Diversity Plus: LPS Assay for CD40 Biomarker Activity (AID 2283076)
Conditions: primary human HUVEC with PBMC; actives raise or lower the signal
Activity calls are given as the source filed them. The calls were made as follows: active = hit-call score of the fitted dose curve at least 0.9, where 1 is the maximum; inactive = score below 0.9.
Possible outcomes: active, inactive

# COMPOUND, CLASS_ASSIGNMENT
data = [
    ("CC(CN=Cc1ccccc1O)N=Cc1ccccc1O (configuration not stated)", "inactive"),
    ("CC(=O)C1(C)CC2=C(CCCC2(C)C)CC1C (configuration not stated)", "active"),
    ("Cc1cc(CCC(=O)OCCOCCOCCOC(=O)CCc2cc(C)c(O)c(C(C)(C)C)c2)cc(C(C)(C)C)c1O", "inactive"),
    ("CC(=O)Nc1ccc(C(=O)CCl)cc1", "active"),
    ("CC(C)(N=C=O)c1cccc(C(C)(C)N=C=O)c1", "inactive"),
    ("Oc1c(Cl)cc(Cl)c(Cl)c1Cc1c(O)c(Cl)cc(Cl)c1Cl", "active"),
    ("CC=Cc1ccc(OCC)c(O)c1", "inactive"),
    ("O=C1OC2(c3ccccc31)c1ccc(O)c(Br)c1Oc1c2ccc(O)c1Br", "active"),
    ("C=C(C)[C@H]1CC=C(C)C(=O)C1", "inactive"),
    ("C=C(C)C(=O)OCC(CC)(COC(=O)C(=C)C)COC(=O)C(=C)C", "inactive"),
    ("CS(=O)(=O)c1ccc(C2=C(c3ccccc3)C(=O)OC2)cc1", "inactive"),
    ("CCCCN(CCCC)C(=O)N(CCCC)CCCC", "active"),
    ("c1ccc(CCc2ccccc2)cc1", "active"),
    ("CCCCCC(C=O)=Cc1ccccc1", "active"),
    ("IC(I)I", "inactive"),
    ("COc1ccc(OC)c(N=Nc2c(O)ccc3ccccc23)c1", "active"),
    ("O=C1c2ccccc2C(=O)c2c(O)ccc(O)c21", "inactive"),
]

---

Read-out: Monokine induced gamma interferon (MIG), CXCL9 (gene 4283)
Experiment: BSK_hDFCGF_MIG: BioMAP Diversity Plus: hDFCGF Assay for Monokine induced gamma interferon (MIG) Biomarker Activity (AID 2283063)
Settings: primary human foreskin fibroblasts; actives raise or lower the signal
The source made the active and inactive calls. How the source made its calls: active means hit-call score of the fitted dose curve at least 0.9, where 1 is the maximum; inactive means score below 0.9.
Possible outcomes: 1.0 for active, 0.0 for inactive

# COMPOUND, CLASS_ASSIGNMENT
measured = [
    ("C1=CC2C3C=CC(C3)C2C1 (stereo unspecified)", 0.0),
    ("CN(C)C(=O)Nc1ccc(Oc2ccc(Cl)cc2)cc1", 0.0),
    ("C=C(C)C(=O)OCC(CC)(COC(=O)C(=C)C)COC(=O)C(=C)C", 1.0),
    ("COc1ccc(CCN2CCC(Nc3nc4ccccc4n3Cc3ccc(F)cc3)CC2)cc1", 0.0),
    ("COc1ccc(OC)c(N=Nc2c(O)ccc3ccccc23)c1", 1.0),
    ("CCCCCC(C=O)=Cc1ccccc1", 0.0),
    ("O=C1c2ccccc2C(=O)c2c(O)ccc(O)c21", 0.0),
    ("IC(I)I", 0.0),
    ("CN(C)C(=S)SC(=S)N(C)C", 1.0),
    ("C=C(C)[C@H]1CC=C(C)C(=O)C1", 0.0),
    ("c1ccc2cc(Nc3ccc(Nc4ccc5ccccc5c4)cc3)ccc2c1", 0.0),
]

---

Read-out: Monocyte Chemoattractant Protein-1 (MCP1), CCL2 (gene 6347)
Assay: BSK_CASM3C_MCP1: BioMAP Diversity Plus: CASM3C Assay for Monocyte Chemoattractant Protein-1 (MCP1) Biomarker Activity (AID 2283046);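 further: MCP-1 level quantified by ELISA 24 h after dosing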
Details: primary human coronary artery smooth muscle cells; actives raise or lower the signal
Active and inactive are the calls of the source. Rule for the calls: active = hit-call score of the fitted dose curve at least 0.9, where 1 is the maximum; inactive = score below 0.9.
Possible outcomes: active, inactive

# COMPOUND, CLASS_ASSIGNMENT
data = [
    ("CCCCN(CCCC)C(=O)N(CCCC)CCCC", "active"),
    ("CC(CN=Cc1ccccc1O)N=Cc1ccccc1O (centres undefined)", "inactive"),
    ("CCCCOC(=O)CCCCCCCC(=O)OCCCC", "inactive"),
    ("CC(C)(C)CC(C)(C)c1ccc(OCCOCC[N+](C)(C)Cc2ccccc2)cc1", "active"),
    ("O=C1c2ccccc2C(=O)c2c(O)ccc(O)c21", "inactive"),
    ("Cc1cc(CCC(=O)OCCOCCOCCOC(=O)CCc2cc(C)c(O)c(C(C)(C)C)c2)cc(C(C)(C)C)c1O", "inactive"),
    ("Clc1cc(Cl)c(-c2c(Cl)c(Cl)cc(Cl)c2Cl)cc1Cl", "inactive"),
    ("CC(C=O)Cc1ccc(C(C)(C)C)cc1 (centres undefined)", "active"),
    ("CN(c1nccc(=O)[nH]1)C1CCN(c2nc3ccccc3n2Cc2ccc(F)cc2)CC1", "inactive"),
    ("O=C1OC2(c3ccccc31)c1ccc(O)c(Br)c1Oc1c2ccc(O)c1Br", "inactive"),
    ("C=C(C)[C@H]1CC=C(C)C(=O)C1", "inactive"),
    ("C=CC(C)(O)CCC=C(C)C (centres undefined)", "inactive"),
    ("CC1(C)C2=CCCC(C)(C)[C@]23CC[C@H]1C3", "active"),
    ("c1ccc2cc(Nc3ccc(Nc4ccc5ccccc5c4)cc3)ccc2c1", "inactive"),
]
